Where do these numbers come from? They come from paper PMC8305768.

Test system: L. infantum MHOM/TN/80/LEM235 intracellular amastigotes
Assay: Activity against L. infantum MHOM/TN/80/LEM235 intramacrophage amastigotes (infected THP-1, Giemsa staining)
Assay type: cell-based, Leishmania infantum
Settings: CC50 THP-1 / IC50 L. infantum MHOM/TN/80/LEM235
reportedMetric: Selectivity Index CC50/IC50

Qu. Which value of Selectivity Index CC50/IC50 has been reported for `C[N+](C)(C)CCOP(=O)([O-])OCCCCCCCCCCCn1cc(CC2CCCCC2)nn1` in the records?
Ans. > 200

Qu. Which value of Selectivity Index CC50/IC50 has been reported for `CCCCCc1cn(CCCCCCCCCCCOP(=O)([O-])OCC[N+](C)(C)C)nn1` in the records?
Ans. > 10.7

Qu. Which value of Selectivity Index CC50/IC50 has been reported for `C[N+](C)(C)CCOP(=O)([O-])OCCCCCCCCCCCn1cc(CC2CCCC2)nn1` in the records?
Ans. > 66.7

Qu. Which value of Selectivity Index CC50/IC50 has been reported for CCCCCCCCCCCCCCCCOP(=O)([O-])OCC[N+](C)(C)C [Miltefosine, hexadecylphosphocholine, reference compound] in the records?
Ans. 4.9
